Biological target: T1, Mature Activin A (human, UniProt P08476 311-426)
T1 construct: also called active Activin A; INHBA mature
T1 sequence: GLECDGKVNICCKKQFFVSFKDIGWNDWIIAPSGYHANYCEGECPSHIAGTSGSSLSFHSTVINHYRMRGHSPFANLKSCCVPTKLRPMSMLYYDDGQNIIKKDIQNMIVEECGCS
Assay: ELISA, coated antigen, OD450
OBSERVABLE: fold-change of OD 450 over negative control (BSA) (fold)

BINDER | OBS_VALUE
AB448 (antibody, IgG1, V domains shown) VH: QVQLQESGPGLVKPSQTLSLTCTVSGLSLSNAKMGVNWIRQPPGKGLEWIGYVSTTGTTDYNPSLKSRVTMSVDTSKNQFSLKVNSVTAADTAVYYCARAGYPDVWGKGTTVTVSS VL: DIQMTQSPSSVSASVGDRVTITCRASQNIGAALAWYQQKPGKAPKLLIYGASTREYGVPSRFSGSGSGTDFTLTISSLQPEDFANYYCQQYTAYPLTFGGGTKVEIK | 3.34
AB449 (antibody, IgG1, V domains shown) VH: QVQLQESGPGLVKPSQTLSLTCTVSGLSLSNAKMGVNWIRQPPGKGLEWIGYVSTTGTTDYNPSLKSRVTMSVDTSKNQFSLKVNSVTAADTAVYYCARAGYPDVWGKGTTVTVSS VL: DIQMTQSPSSVSASVGDRVTITCRASQGISRDLAWYQQKPGKAPKLLIYAASTLVSGVPSRFSGSGSGTDFTLTISSLQPEDFANYYCQQYVSAPPYTFGGGTKVEIK | 6.63
AB438 (antibody, IgG1, V domains shown) VH: QVQLQESGPGLVKPSQTLSLTCTVSGVSLSNARLGVNWIRQPPGKGLEWIGYGSVTGSTDYNPSLKSRVTMSVDTSKNQFSLKVNSVTAADTAVYYCTTSYLVDTAMVTRWGQGTLVTVSS VL: EIVMTQSPATLSLSPGERATLSCRASQSLGTNLAWYQQKPGQAPRLLIYGASSRPSGIPARFSGSGSGTDFTLTISSLEPEDFAVYYCQQYDTHPLSFGGGTKVEIK | 2.83
